Please respond with reported Emax for every item in the list.
target: GST tagged LXRalpha LBD (ligand binding domain) (Homo sapiens, UniProt Q13133); construct: purchased Invitrogen pv4655; experiment: LanthaScreen TR-FRET Liver X Receptor Coactivator Assay, LXR alpha-LBD; format: biochemical; details: activity at max dose (efficacy), relative to reference T0901317; read-out: LXR alpha act @ max dose (%)
Sequence (Q13133 209-447 limits assumed): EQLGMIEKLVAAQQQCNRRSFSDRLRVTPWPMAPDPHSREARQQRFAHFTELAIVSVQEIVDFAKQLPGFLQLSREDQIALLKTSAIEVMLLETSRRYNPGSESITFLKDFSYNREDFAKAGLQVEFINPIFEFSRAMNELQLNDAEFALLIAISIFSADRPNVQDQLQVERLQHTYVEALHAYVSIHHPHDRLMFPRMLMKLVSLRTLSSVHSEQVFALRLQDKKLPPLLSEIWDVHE
Record the value in %, omitting the unit from your answer.

Quick note, Emax for CC(C)C(O)(C(=O)N1CCC(C2CCN(c3ccc(C(=O)N4CCOC[C@H]4C)c(Cl)c3)CC2)CC1)C(F)(F)F (stereo partly drawn) landed at 32

Quick note, Emax for O=C(c1ccc(N2CCC(C3CCN(C(=O)[C@](O)(c4ccccc4)C(F)(F)F)CC3)CC2)cc1Cl)N1CC(F)C1 landed at 12

Quick note, Emax for O=C(c1ccc(N2CCC(C3CCN(C(=O)[C@](O)(c4ccccc4)C(F)(F)F)CC3)CC2)cc1Cl)N1CCC1CO (stereo partly drawn) landed at 27

Quick note, Emax for CC(C)(C)OC(=O)NC1CN(C(=O)c2ccc(N3CCC(C4CCN(C(=O)OC(C)(C)C)CC4)CC3)cc2Cl)C1 landed at 64

Quick note, Emax for O=C(c1ccc(N2CCC(C3CCN(C(=O)[C@](O)(c4ccccc4)C(F)(F)F)CC3)CC2)cc1Cl)N(CCF)CCF landed at 30

Quick note, Emax for CC(C)[C@](O)(C(=O)N1CCC(C2CCN(c3ccc(C(=O)N(C)C)c(Cl)c3)CC2)CC1)C(F)(F)F (single isomer, unassigned) landed at 36

Quick note, Emax for O=C(c1c(F)cccc1F)N1CCC(C2CCN(c3ccc(C(=O)N4CCCC4C(F)(F)F)c(Cl)c3)CC2)CC1 (stereo not drawn) landed at 15

Quick note, Emax for CN(C)C(=O)c1ccc(N2CCC(C3CCN(C(=O)C4(C(F)(F)F)CCC4)CC3)CC2)cc1Cl landed at 46

Quick note, Emax for O=C(c1ccc(N2CCC(C3CCN(C(=O)[C@](O)(c4ccccc4)C(F)(F)F)CC3)CC2)cc1Cl)N1CC(n2cccn2)C1 landed at 39

Quick note, Emax for CN(C)S(=O)(=O)c1ccc(N2CCC(C3CCN(C(=O)[C@](O)(c4ccccc4)C(F)(F)F)CC3)CC2)cc1Cl landed at 29

Quick note, Emax for CN(C(=O)c1ccc(N2CCC(C3CCN(C(=O)[C@](O)(c4ccccc4)C(F)(F)F)CC3)CC2)cc1Cl)C1CCOC1 (stereo partly drawn) landed at 34

Quick note, Emax for CN(C)C(=O)c1ccc(N2CCC(C3CCN(C(=O)C(O)(c4ccccc4)C4CCC4)CC3)CC2)cc1Cl (stereo not drawn) landed at 33

Quick note, Emax for C#CC(C)(C)C(=O)N1CCC(C2CCN(c3ccc(C(=O)N(C)C)c(Cl)c3)CC2)CC1 landed at 62

Quick note, Emax for CN(C)C(=O)c1ccc(N2CCC(C3CCN(C(=O)C4(C(F)(F)F)CCCC4)CC3)CC2)cc1Cl landed at 73

Quick note, Emax for CN(C)C(=O)c1ccc(N2CCC(C3CCN(C(=O)C(O)(c4ccccc4)C(F)(F)C(F)(F)C(F)(F)F)CC3)CC2)cc1Cl (stereo not drawn) landed at 15

Quick note, Emax for CN(C)C(=O)c1ccc(N2CCC(C3CCN(C(=O)C(O)(C4CCC4)C(F)(F)F)CC3)CC2)cc1Cl (stereo not drawn) landed at 59

Quick note, Emax for CN(C)C(=O)c1ccc(N2CCC(C3CCN(C(=O)C(O)(c4cccc(F)c4)C(F)(F)F)CC3)CC2)cc1Cl (stereo not drawn) landed at 38

Quick note, Emax for CN(C)C(=O)c1ccc(N2CCC(C3CCN(C(=O)C(O)(C(F)(F)F)C(F)(F)F)CC3)CC2)cc1Cl landed at 59

Quick note, Emax for CN(CC1CC1(C)C)C(=O)c1ccc(N2CCC(C3CCN(C(=O)c4c(F)cccc4F)CC3)CC2)cc1Cl (stereo not drawn) landed at 10

Quick note, Emax for Cc1ccc(C2(C(=O)N3CCC(C4CCN(c5ccc(C(=O)N(C)C)c(Cl)c5)CC4)CC3)CCC2)cc1 landed at 30

Quick note, Emax for CC(C)(C)OC(=O)NC1CN(C(=O)c2ccc(N3CCC(C4CCN(C(=O)[C@](O)(c5ccccc5)C(F)(F)C(F)(F)F)CC4)CC3)cc2Cl)C1 landed at 64

Quick note, Emax for COc1cccc([C@@](O)(C(=O)N2CCC(C3CCN(c4ccc(C(=O)N(C)C)c(Cl)c4)CC3)CC2)C(F)(F)F)c1 (single isomer, unassigned) landed at 19

Quick note, Emax for CN(C)C(=O)c1ccc(N2CCC(C3CCN(S(=O)(=O)c4ccccc4)CC3)CC2)cc1Cl landed at 0

Quick note, Emax for O=C(c1ccc(N2CCC(C3CCN(C(=O)[C@](O)(c4ccccc4)C(F)(F)F)CC3)CC2)cc1Cl)N1CCCC1C1CC1 (stereo partly drawn) landed at 16

Quick note, Emax for CC(C)C(O)(C(=O)N1CCC(C2CCN(c3ccc(C(=O)N(C)C)cc3Cl)CC2)CC1)C(F)(F)F (stereo not drawn) landed at 67

Quick note, Emax for CN(C)C(=O)c1ccc(N2CCC(C3CCN(C(=O)C(C)(C)c4ccc(O)cc4)CC3)CC2)cc1Cl landed at 59

Quick note, Emax for CCCC(O)(C(=O)N1CCC(C2CCN(c3ccc(C(=O)N(C)C)c(Cl)c3)CC2)CC1)C(F)(F)F (stereo not drawn) landed at 52
